- System: rat peritoneal neutrophils
- Measurement description: Inhibition of ionophore-stimulated release of free arachidonic acid from [14C]-arachidonic acid pre-labelled rat peritoneal neutrophils
- Type: cell-based
- Condition description: read-out: IC50, concentration required to inhibit by 50% compared to controls the release of radiolabelled products into supernatant liquid
pIC50: −log10 of the molar value.
Parameter measured: pIC50

[[record]]
compound = "C=C(C)C(=O)c1nc(SC)n(-c2ccc(CC)cc2)c1Br [Example 7]"
assayed_system = "rat peritoneal neutrophils"
parameter_measured = "pIC50"
meas_value = 5.60

[[record]]
compound = "O=C(C#Cc1ccccc1)c1cn2ccccc2n1 [Example 27]"
assayed_system = "rat peritoneal neutrophils"
parameter_measured = "pIC50"
meas_value = 4.39

[[record]]
compound = "CCc1c(OC)nc2nc(C(=O)C#CC(C)(C)C)c(Br)n2c1C [Example 20]"
assayed_system = "rat peritoneal neutrophils"
parameter_measured = "pIC50"
meas_value = 5.38

[[record]]
compound = "C=C(C)C(=O)c1nc(SC(C)C)n(-c2ccc(C)cc2)c1Br [Example 11]"
assayed_system = "rat peritoneal neutrophils"
parameter_measured = "pIC50"
meas_value = 5.43

[[record]]
compound = "C=C(C)C(=O)c1nc(SC)n(-c2ccc(OC)cc2)c1Cl [Example 9]"
assayed_system = "rat peritoneal neutrophils"
parameter_measured = "pIC50"
meas_value = 5.04

[[record]]
compound = "CCc1c(OC)nc2nc(C(=O)C#CCO)c(Br)n2c1C [Example 22]"
assayed_system = "rat peritoneal neutrophils"
parameter_measured = "pIC50"
meas_value = 4.23

